- system.tested: HLA-A*1101 (human)
- protocol.description: inhibition of 125I-A3con binding to purified HLA
- conditions.used: remark: other sources report otherwise
readout.kind: IC50

1. HLFGYSWYK [CEA.61] :: 0.024 µM
